Quick reference for koff among some binders
- assayedSystem: T1, recombinant human IL-13 (human, UniProt P35225 35-146)
- T1 construct: also called rh-IL-13; hIL-13
- T1 sequence (P35225 35-146 limits assumed): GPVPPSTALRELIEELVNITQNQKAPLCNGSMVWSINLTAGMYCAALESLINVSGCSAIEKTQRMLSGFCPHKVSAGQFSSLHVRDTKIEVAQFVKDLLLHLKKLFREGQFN
- methodSummary: SPR
measuredQuantity: koff

[[record]]
binder = "BDG38.083 (antibody, V domains shown, IgG1) VH: QMQLVESGGGVVQPGRSLTLSCAASGFEFRTYGMHWVRQAPGKGLEWVGVIWDDGSNTHYADSVKGRFTITRDNSKNTLNLQMNSLRAEDTAVYYCARAPQWYLTAEAFDLWGQGTMVTVSS VL: SYILTQPPSVSVAPGQTATITCGGNLIGAKLVHWYQQKPGQAPVLVIYDDSDRPSRIPERFSGSNIGNTATLTISDVEEGDEADYYCQVWDYSSDTMVFGGGTKLTVL"
measuredquantity = "koff"
reportedresult = "0.000401 s⁻¹"

[[record]]
binder = "BDG38.082 (antibody, V domains shown, IgG1) VH: QMQLVESGGGVVQPGRSLRLSCAASGFAFRTYGMHWVRQAPGKGLEWVAVIWDDGSNTHYADSVKGRFTITRDNSKNTLNLQMNSLRAEDTAVYYCVRAPQWYLTAEAFDLWGQGTMVTVSS VL: SYVLTQPPSVSVAPGETATITCGGNMIGGYLVHWYQQKPGQAPVLVIYDDVDRPDRIPERFSGSNSGNTATLTISRVEAGDEADYYCQVWDHDTNQVVFGGGTKLTVL"
measuredquantity = "koff"
reportedresult = "0.000956 s⁻¹"

